Provide the reported IC50 of each item.
- Test system: THP-1
- test.description: Inhibitory activity evaluated against human THP-1 cell line in cellular assay
- Type: functional, cell-based
Report only the number, with the unit nM understood.

Entry under test: CC(C)[C@H](NC(=O)C(=O)Nc1ccccc1I)C(=O)N[C@@H](CC(=O)O)C(=O)COc1c(F)c(F)cc(F)c1F . Its IC50 was 1500

Entry under test: O=C(O)C[C@H](NC(=O)C(NC(=O)C(=O)Nc1cccc2ccccc12)C1CCCCC1)C(=O)COc1c(F)c(F)cc(F)c1F (some centres not stated) . Its IC50 was 1440

Entry under test: O=C(O)C[C@H](NC(=O)[C@H](Cc1ccccc1)NC(=O)C(=O)Nc1cccc2ccccc12)C(=O)COc1c(F)c(F)cc(F)c1F . Its IC50 was 1260

Entry under test: CC(C)[C@H](NC(=O)C(=O)Nc1cnccn1)C(=O)N[C@@H](CC(=O)O)C(=O)COc1c(F)c(F)cc(F)c1F . Its IC50 was 1440

Entry under test: CC(C)[C@H](NC(=O)C(=O)Nc1cccc2ccccc12)C(=O)N[C@@H](CC(=O)O)C(=O)COc1ccc(-c2ccccc2)cc1 . Its IC50 was 1120

Entry under test: CC(C)[C@H](NC(=O)C(=O)Nc1ccccc1C(F)(F)F)C(=O)N[C@@H](CC(=O)O)C(=O)COc1c(F)c(F)cc(F)c1F . Its IC50 was 820

Entry under test: CC(C)[C@H](NC(=O)C(=O)Nc1ccc2c(c1)CCC2)C(=O)N[C@@H](CC(=O)O)C(=O)COc1c(F)c(F)cc(F)c1F . Its IC50 was 1280

Just for reference, ChEMBL document CHEMBL1146752 is where these values come from.
